assay_remarks: Solubility analysis in PBS (Analysis Method B)
Assay type: physicochemical
run_conditions: pH 7.4
Counter-ions that a name gives are not always drawn. Square brackets hold non-standard residues; d marks the D form. Peptide text beside a SMILES is read from it. * marks the point of attachment. d2Nal = N[C@H](Cc1ccc2ccccc2c1)C(=O)O; pGlu = O=C1CC[C@@H](C(=O)O)N1; tBu = CC(C)(C)*
The following compounds are shown together with reported Solubility grading values.
Answer using only a numeral; do not append any unit.

Qu. Can you share its Solubility grading? I mean this compound: CC(C)C[C@H](NC(=O)[C@@H](Cc1c[nH]c2ccccc12)NC(=O)[C@H](Cc1c[nH]cn1)NC(=O)[C@H](CO)NC(=O)[C@H](Cc1c[nH]c2ccccc12)NC(=O)[C@H](Cc1c[nH]cn1)NC(=O)[C@@H]1CCC(=O)N1)C(=O)N[C@@H](Cc1ccc(O)cc1)C(=O)N1CCC[C@H]1C(=O)NCC(N)=O [Compound 16] ([pGlu]HWSH[dW]LYPG-NH2)
Ans. 2

Qu. Same read-out for CCNC(=O)[C@@H]1CCCN1C(=O)[C@H](Cc1ccc(O)cc1)NC(=O)[C@H](Cc1c[nH]c2ccccc12)NC(=O)[C@@H](COC(C)(C)C)NC(=O)[C@H](Cc1c[nH]cn1)NC(=O)[C@H](CO)NC(=O)[C@H](Cc1c[nH]c2ccccc12)NC(=O)[C@H](Cc1c[nH]cn1)NC(=O)[C@@H]1CCC(=O)N1 [Compound 13] ([pGlu]HWSH[dS](tBu)WYP-NHEt) ?
Ans. 3

Qu. Same read-out for CCNC(=O)[C@@H]1CCCN1C(=O)[C@H](Cc1ccc(O)cc1)NC(=O)[C@H](Cc1c[nH]c2ccccc12)NC(=O)[C@@H](CC(C)C)NC(=O)[C@H](Cc1ccc(O)cc1)NC(=O)[C@H](CO)NC(=O)[C@H](Cc1c[nH]c2ccccc12)NC(=O)[C@H](Cc1c[nH]cn1)NC(=O)[C@@H]1CCC(=O)N1 [Compound 49] ([pGlu]HWSY[dL]WYP-NHEt) ?
Ans. 4

Qu. Same read-out for NC(=O)CNC(=O)[C@@H]1CCCN1C(=O)[C@H](Cc1ccc(O)cc1)NC(=O)[C@H](Cc1c[nH]c2ccccc12)NC(=O)[C@@H](Cc1c[nH]c2ccccc12)NC(=O)[C@H](Cc1c[nH]cn1)NC(=O)[C@H](CO)NC(=O)[C@H](Cc1c[nH]c2ccccc12)NC(=O)[C@H](Cc1c[nH]cn1)NC(=O)[C@@H]1CCC(=O)N1 [Compound 65] ([pGlu]HWSH[dW]WYPG-NH2) ?
Ans. 4

Qu. Same read-out for NC(=O)CNC(=O)[C@@H]1CCCN1C(=O)[C@H](Cc1ccc(O)cc1)NC(=O)[C@H](Cc1c[nH]c2ccccc12)NC(=O)[C@@H](Cc1ccc2ccccc2c1)NC(=O)[C@H](Cc1ccc(O)cc1)NC(=O)[C@H](CO)NC(=O)[C@H](Cc1c[nH]c2ccccc12)NC(=O)[C@H](Cc1c[nH]cn1)NC(=O)[C@@H]1CCC(=O)N1 [Compound 30] ([pGlu]HWSY[d2Nal]WYPG-NH2) ?
Ans. 1

Qu. Same read-out for CCNC(=O)[C@@H]1CCCN1C(=O)[C@H](Cc1ccc(O)cc1)NC(=O)[C@H](CC(C)C)NC(=O)[C@@H](COC(C)(C)C)NC(=O)[C@H](Cc1ccc(O)cc1)NC(=O)[C@H](CO)NC(=O)[C@H](Cc1c[nH]c2ccccc12)NC(=O)[C@H](Cc1c[nH]cn1)NC(=O)[C@@H]1CCC(=O)N1 [Compound 9] ([pGlu]HWSY[dS](tBu)LYP-NHEt) ?
Ans. 1

Qu. Same read-out for CCNC(=O)[C@@H]1CCCN1C(=O)[C@H](CCCNC(=N)N)NC(=O)[C@H](CC(C)C)NC(=O)[C@@H](CC(C)C)NC(=O)[C@H](Cc1ccc(O)cc1)NC(=O)[C@H](CO)NC(=O)[C@H](Cc1c[nH]c2ccccc12)NC(=O)[C@H](Cc1c[nH]cn1)NC(=O)[C@@H]1CCC(=O)N1 [Leuprorelin TFA, leuprorelin, reference compound] ?
Ans. 1
